- protocol: Intrinsic clearance unbound in mouse liver microsomes at 1 uM […] by LC-MS/MS analysis
- Type: ADME, Microsome
Note to self: values exactly at 200 mL/min/kg are yes. So CL free at or above 200 mL/min/kg is yes, below is no.

# querySmiles, groupLabel
rows = [
    ("CCOc1nc(C)cc(NC(=O)NCc2cc(C)c(-c3cn(C)nc3C(F)(F)F)nn2)c1Cl", "yes"),
    ("CCOc1nc(C)cc(NC(=O)NCc2cc(C)c(-c3cn(C)nc3C(F)(F)F)nn2)c1C", "yes"),
    ("Cc1cc(CNC(=O)c2cc(Cl)nc(Cl)c2)ncc1-c1cn(C)nc1C", "no"),
    ("CCOc1cc(NC(=O)NCc2cc(C)c(-c3cn(C)nc3C(F)(F)F)nn2)cc(C)n1", "no"),
    ("Cc1cc(CNC(=O)Nc2cc(C(F)(F)F)nc(OCCO)c2C)nnc1-c1cn(C)nc1C(F)(F)F", "no"),
    ("Cc1cc(CNC(=O)Nc2cc(Cl)nc(OCC(F)F)c2)nnc1-c1cn(C)nc1C(F)(F)F", "no"),
    ("CCOc1cc(NC(=O)NCc2cc(C)c(-c3cn(C)nc3C(F)(F)F)nn2)cc(C#N)n1", "no"),
]

###

- protocol: Oral bioavailability in beagle dog at 1 mg/kg measured up to 24 hrs by LC-MS/MS analysis
- Type: ADME, organism-based, Canis lupus familiaris
- measurementContext: in vivo
quantityName: bioavailability (%)

# querySmiles, numericReadout
data = [
    ("CCOc1nc(C)cc(NC(=O)NCc2cc(C)c(-c3cn(C)nc3C(F)(F)F)nn2)c1C", 39),
]

###

Listing: solubility thermodynamic of selected compounds
- protocol: Thermodynamic solubility in FaSSGF at pH 1.6
- Type: physicochemical
- measurementContext: read-out: Therm_solubility

# querySmiles, solubility thermodynamic / µg/mL
measured = [
    ("CCOc1nc(C)cc(NC(=O)NCc2cc(C)c(-c3cn(C)nc3C(F)(F)F)nn2)c1C", 505),
    ("CCOc1cc(NC(=O)NCc2cc(C)c(-c3cn(C)nc3C(F)(F)F)nn2)cc(Cl)n1", 5),
    ("CCOc1cc(NC(=O)NCc2cc(C)c(-c3cn(C)nc3C(F)(F)F)nn2)cc(C(F)(F)F)n1", 2.7),
]

###

Each record here notes measured pIC50.
- studySystem: Sphingosine 1-phosphate receptor 2 (Homo sapiens)
- protocol: Antagonist activity at recombinant human S1P2 receptor expressed in CHO cells assessed as EC80 S1P-induced activation incubated for 4 hrs in presence of [35S]GTPgammaS by Topcount reader
- Assay type: functional, cell-based
pIC50: −log10 of the molar value.
quantityName: pIC50

# querySmiles, studySystem, quantityName, numericReadout
records = [
    ("CCOc1nc(C)cc(NC(=O)NCc2cc(C)c(-c3cn(C)nc3C(F)(F)F)nn2)c1Cl", "Sphingosine 1-phosphate receptor 2 (Homo sapiens)", "pIC50", 4.59),
    ("CCOC(=O)c1cc(C)cc(NNC(=O)Nc2cc(Cl)nc(Cl)c2)n1", "Sphingosine 1-phosphate receptor 2 (Homo sapiens)", "pIC50", 5.68),
    ("CCOc1nc(C)cc(NC(=O)NCc2cc(C)c(-c3cn(C)nc3C(F)(F)F)nn2)c1C", "Sphingosine 1-phosphate receptor 2 (Homo sapiens)", "pIC50", 4.80),
    ("CCOc1cc(NC(=O)NCc2cc(C)c(-c3cn(C)nc3C(F)(F)F)nn2)cc(C)n1", "Sphingosine 1-phosphate receptor 2 (Homo sapiens)", "pIC50", 3.62),
    ("CCOc1cc(NC(=O)NCc2cc(C)c(-c3cn(C)nc3C(F)(F)F)nn2)cc(C(F)(F)F)n1", "Sphingosine 1-phosphate receptor 2 (Homo sapiens)", "pIC50", 4.54),
]

###

- studySystem: UniProtKB O95136
- protocol: Antagonist activity at recombinant human S1P2 receptor expressed in CHO cells assessed as EC80 S1P-induced activation incubated for 4 hrs in presence of [35S]GTPgammaS by Topcount reader
- Assay type: functional, cell-based
quantityName: IC50 (µM)

# querySmiles, unitSpec, numericReadout
records = [
    ("Cc1cc(NNC(=O)Nc2cc(Cl)nc(Cl)c2)nc(-c2ccc(F)cc2)c1", "µM", 6.2),
    ("Cc1cc(CNC(=O)Nc2cc(C(F)(F)F)nc(OCCO)c2C)nnc1-c1cn(C)nc1C(F)(F)F", "µM", 169),
    ("Cc1cc(NNC(=O)Nc2cc(Cl)nc(Cl)c2)ncc1N(C)C", "µM", 5.3),
    ("Cc1cc(NNC(=O)Nc2cc(Cl)nc(Cl)c2)ncc1-c1cn(C)nc1C", "µM", 0.8),
    ("Cc1cc(CO)nc(NNC(=O)Nc2cc(Cl)nc(Cl)c2)c1", "µM", 31),
    ("CCOc1nc(C#N)cc(NC(=O)NCc2cc(C)c(-c3cn(C)nc3C(F)(F)F)nn2)c1C", "µM", 24),
    ("Cc1cc(CNC(=O)Nc2cc(Cl)nc(Cl)c2)ncc1-c1cn(C)nc1C", "µM", 0.77),
    ("CCOc1nc(Cl)cc2nc(NCc3cc(C)c(-c4cn(C)nc4C)cn3)[nH]c12", "µM", 2.25),
    ("CCOc1cc(NC(=O)NCc2cc(C)c(-c3cn(C)nc3C)cn2)cc(Cl)n1", "µM", 0.32),
    ("Cc1cc(CNC(=O)Nc2cc(Cl)cc(Cl)c2)ncc1-c1cn(C)nc1C", "µM", 0.3),
]

###

- protocol: Intrinsic clearance unbound in mouse liver microsomes at 1 uM […] by LC-MS/MS analysis
- Assay type: ADME, Microsome
# CL free per entry
quantityName: CL free (mL/min/kg)

# compound, quantityName, inequalitySign, numericReadout
rows = [
    ("Cc1cc(CNC(=O)Nc2cc(Cl)cc(Cl)c2)ncc1-c1cn(C)nc1C", "CL free", "=", 2650),
    ("CCOc1nc(Cl)cc2nc(NCc3cc(C)c(-c4cn(C)nc4C)cn3)[nH]c12", "CL free", "=", 1370),
    ("CCOc1nc(Cl)cc(NC(=O)NCc2cc(C)c(-c3cn(C)nc3C(F)(F)F)nn2)c1C", "CL free", "<", 533),
    ("COCCOc1cc(NC(=O)NCc2cc(C)c(-c3cn(C)nc3C(F)(F)F)nn2)cc(Cl)n1", "CL free", "=", 317),
    ("CCOc1cc(NC(=O)NCc2cc(C)c(N3CC(C)OC(C)C3)cn2)cc(Cl)n1 (centres undefined)", "CL free", "=", 500),
    ("Cc1cc(CNC(=O)Nc2cc(OCC(O)CO)nc(C(F)(F)F)c2)nnc1-c1cn(C)nc1C(F)(F)F (centres undefined)", "CL free", "<", 76.7),
    ("CCOc1nc(C)cc(NC(=O)NCc2cc(C)c(-c3cn(C)nc3C(F)(F)F)nn2)c1C#N", "CL free", "=", 2270),
    ("CCOc1cc(NC(=O)NCc2cc(C)c(Nc3cn(C)nc3C)cn2)cc(C(F)(F)F)n1", "CL free", "=", 867),
    ("Cc1cc(CNC(=O)Nc2cc(OCCN(C)C)nc(C(F)(F)F)c2)nnc1-c1cn(C)nc1C(F)(F)F", "CL free", "<", 90),
]

###

- studySystem: UniProt O95136
- protocol: Antagonist activity at recombinant human S1P2 receptor expressed in CHO cells assessed as EC80 S1P-induced activation incubated for 4 hrs in presence of [35S]GTPgammaS by Topcount reader
- Assay type: functional, cell-based
Classify: condition met when IC50 is strictly less than 3 µM; condition not met when IC50 is not.

# querySmiles, groupLabel
records = [
    ("Cc1cc(CNC(=O)Nc2cc(Cl)nc(OCC(F)F)c2)nnc1-c1cn(C)nc1C(F)(F)F", "condition not met"),
    ("CCOc1nc(Cl)cc(NC(=O)NCc2cc(C)c(-c3cn(C)nc3C(F)(F)F)nn2)c1C", "condition not met"),
    ("CCOc1cc(NC(=O)NCc2cc(C)c(Nc3cn(C)nc3C)cn2)cc(C(F)(F)F)n1", "condition not met"),
    ("Cc1cc(NNC(=O)Nc2cc(Cl)nc(Cl)c2)ncc1-c1cnn(C)c1", "condition not met"),
    ("Cc1cc(CNC(=O)c2cc3c(Cl)cc(Cl)cc3[nH]2)ncc1-c1cn(C)nc1C", "condition met"),
]

###

- studySystem: Sphingosine 1-phosphate receptor 2 (Homo sapiens, UniProt O95136)
- Sequence (O95136 whole entry): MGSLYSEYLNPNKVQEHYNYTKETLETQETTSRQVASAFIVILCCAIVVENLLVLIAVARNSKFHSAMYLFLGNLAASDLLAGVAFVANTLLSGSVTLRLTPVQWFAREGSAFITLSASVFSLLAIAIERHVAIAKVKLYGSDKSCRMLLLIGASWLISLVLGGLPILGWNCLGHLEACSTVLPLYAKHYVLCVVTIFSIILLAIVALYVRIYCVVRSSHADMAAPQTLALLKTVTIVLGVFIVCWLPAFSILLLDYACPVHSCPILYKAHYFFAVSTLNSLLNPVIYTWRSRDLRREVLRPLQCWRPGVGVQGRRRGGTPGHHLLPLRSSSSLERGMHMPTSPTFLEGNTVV
- protocol: Antagonist activity at recombinant human S1P2 receptor in HFL1 cells assessed as inhibition of EC80 S1P-induced IL8 release incubated for 16 to 24 hrs in absence of HSA by ELISA
- Format: functional, cell-based
pIC50: −log10 of the molar value.
Would you please tag the item Yes when its pIC50 is 7 or above, and No when it is below?

# querySmiles, groupLabel
records = [
    ("CCOc1cc(NC(=O)NCc2cc(C)c(-c3cn(C)nc3C(F)(F)F)cn2)cc(Cl)n1", "Yes"),
    ("Cc1cc(CNC(=O)c2cc3c(Cl)nc(Cl)cc3[nH]2)ncc1-c1cn(C)nc1C", "Yes"),
    ("Cc1cc(CNC(=O)Nc2cc(OCCO)nc(C(F)(F)F)c2)nnc1-c1cn(C)nc1C(F)(F)F", "No"),
    ("CCOc1nc(Cl)cc2nc(NCc3cc(C)c(-c4cn(C)nc4C)cn3)[nH]c12", "Yes"),
    ("Cc1cc(CNC(=O)Nc2cc(OCCN(C)C)nc(C(F)(F)F)c2)nnc1-c1cn(C)nc1C(F)(F)F", "No"),
    ("COCCOc1cc(NC(=O)NCc2cc(C)c(-c3cn(C)nc3C(F)(F)F)nn2)cc(Cl)n1", "No"),
    ("Cc1cc(CNC(=O)Nc2cc(Cl)nc(OCC(F)F)c2)nnc1-c1cn(C)nc1C(F)(F)F", "Yes"),
]
